B1: ZC3H15 (parent)
chain: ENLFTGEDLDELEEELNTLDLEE

Variants of: B1
Experiment: protein stability index of a GFP-peptide fusion (GPS, HEK-293T) (PSI 1-6); higher = more stable;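 note: lentivirally expressed fusions sorted by FACS into six bins by GFP to DsRed ratio, PSI derived from sequencing read proportions per bin multiplied by bin number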
Conditions: c terminus: native
// reported protein stability index for each item listed
Could you respond with only the numeric value?

Answered examples (5):
LNLFTGEDLDELEEELNTLDLEE [E1L] ... 4.16
ENLFTGEDLDELEEELNTQDLEE [L19Q] ... 4.27
ENLFTGEDLDELEEELNTLSLEE [D20S] ... 5.25
ENLFIGEDLDELEEELNTLDLEE [T5I] ... 4.05
ENLFTGEDLDELHEELNTLDLEE [E13H] ... 3.82

Task: Sample ENLFTGEDLDELEKELNTLDLEE [E14K] — what was its protein stability index?
Output: 5.14

The reported numbers originate from the supplement of paper PMC10567573.
